Values were extracted from patent US20210087522.

Target: T1, MACP, CP of an uncharacterized NRP/PK gene cluster from M. aeruginosa NIES843
T1 chain: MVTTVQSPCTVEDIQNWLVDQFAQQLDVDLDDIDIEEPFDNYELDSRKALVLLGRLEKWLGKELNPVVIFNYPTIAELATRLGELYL
metric-name: Km (µM)
Answers are plain numbers, in µM.

stdin: For Sfp, phosphopantetheinyl transferase from Bacillus subtilis (protein) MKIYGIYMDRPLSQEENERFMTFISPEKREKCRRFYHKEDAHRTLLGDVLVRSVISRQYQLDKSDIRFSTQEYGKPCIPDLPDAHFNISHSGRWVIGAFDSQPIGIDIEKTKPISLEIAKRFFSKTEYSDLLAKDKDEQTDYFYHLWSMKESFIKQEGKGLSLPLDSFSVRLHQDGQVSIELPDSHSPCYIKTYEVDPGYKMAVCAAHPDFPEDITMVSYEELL , what is its reported Km?
stdout: 6.7
